Recorded IC50, one value per entry.
tested on: synoviocytes (HIG.82 rabbit); assay: MTT proliferation/cytotoxicity assay, synoviocytes; type: cell-based; conditions: Oryctolagus cuniculus, 48 h, read-out: inhibitory concentration that gave 50% effect on proliferation (IC50), synoviocytes
readout_name: IC50 (µM)

>  <structure_smiles>
CC[C@@]1(O)C(=O)OCc2c1cc1n(c2=O)Cc2cc3ccccc3nc2-1

>  <units_symbol>
µM

>  <test_result>
0.065

$$$$
>  <structure_smiles>
O=C1C=CC(=O)c2c(O)cccc21

>  <units_symbol>
µM

>  <test_result>
4.3

$$$$

###

tested on: collagenase gene; assay: IL-1 induced collagenase gene expression in chondrocytes; format: cell-based, calf; conditions: 1×10^−5 M

>  <compound>
CC1=CC(=O)c2ccccc2C1=O [menadione]

>  <target_of_assay>
collagenase gene

>  <IL-1 induced collagenase gene expression>
inhibited

$$$$
>  <compound>
COc1cccc2c1C(=O)c1c(O)c3c(c(O)c1C2=O)C[C@@](O)(C(=O)CO)C[C@@H]3O[C@H]1C[C@H](N)[C@H](O)[C@H](C)O1 [doxorubicin]

>  <target_of_assay>
collagenase gene

>  <IL-1 induced collagenase gene expression>
completely inhibited

$$$$
>  <compound>
CC1=CC(=O)c2c(O)cccc2C1=O [plumbagin]

>  <target_of_assay>
collagenase gene

>  <IL-1 induced collagenase gene expression>
completely inhibited

$$$$
>  <compound>
COc1cc([C@@H]2c3cc4c(cc3[C@@H](O[C@@H]3O[C@@H]5CO[C@@H](C)O[C@H]5[C@H](O)[C@H]3O)[C@H]3COC(=O)[C@H]23)OCO4)cc(OC)c1O [etoposide]

>  <target_of_assay>
collagenase gene

>  <IL-1 induced collagenase gene expression>
inhibited

$$$$
